- assay-system: Sigma receptor (Cavia porcellus)
- Construct: Brain membranes were prepared by the method of Tam; from tissue; host or cells: guinea pig whole brain membranes
- Sequence (Q60492 whole entry): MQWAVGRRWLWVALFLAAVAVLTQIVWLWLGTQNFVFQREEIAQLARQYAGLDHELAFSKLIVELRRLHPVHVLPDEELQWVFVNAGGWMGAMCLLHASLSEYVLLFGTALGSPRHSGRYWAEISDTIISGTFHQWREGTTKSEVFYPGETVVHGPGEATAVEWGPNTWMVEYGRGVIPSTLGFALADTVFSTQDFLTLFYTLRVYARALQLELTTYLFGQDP
- protocol-description: Sigma Receptor Binding Assay
- Assay type: guinea pig (male Hartley), brain membranes
- measurement-context: 1 nM (+)-[3H]SKF 10,047, guinea pig brain membranes, pH 7.4, 45 min room temperature; read-out: Receptor Binding Affinity Sigma (Ki class)
This section presents compounds with their documented Ki values.

compound | assay-system | result
O=C1[C@H]2CCCC[C@H]2C(=O)N1CCCC1CCN(CCc2ccccc2)CC1 | Sigma receptor (Cavia porcellus) | 1 to 30 nM
CC1(CN2C(=O)[C@H]3CCCC[C@H]3C2=O)CCN(CCC2CCCCC2)CC1 | Sigma receptor (Cavia porcellus) | 1 to 30 nM
O=C1[C@@H]2CCCC[C@H]2C(=O)N1CC1CCN(CCc2ccccc2)CC1 (relative stereo) | Sigma receptor (Cavia porcellus) | 31 to 100 nM
O=C1c2ccccc2C(O)N1CC1CCN(CCc2ccccc2)CC1 (centres unmarked) | Sigma receptor (Cavia porcellus) | 101 to 500 nM
CCCCCCC1C2=C(CCCC2)C(=O)N1CC1CCN(CCc2ccccc2)CC1 (centres unmarked) | Sigma receptor (Cavia porcellus) | 1 to 30 nM

Query: Could you tell me which Ki is on file for O=C1[C@H]2CCCC[C@H]2C(=O)N1CCC1=CCN(CCc2ccccc2)CC1 ?
Response: 1 to 30 nM

Query: Could you tell me which Ki is on file for O=C1[C@H]2CCCC[C@H]2C(=O)N1CC1(O)CCN(CCc2ccccc2)CC1 ?
Response: 101 to 500 nM

Query: Could you tell me which Ki is on file for O=C1c2ccccc2C(=O)N1CCCC1CCCN(Cc2ccccc2)C1 (centres unmarked) ?
Response: 1 to 30 nM

FYI, the data here is from patent US5480892A.
